target-or-test-system: T1, HIF-1α PAS-B domain (UniProt Q16665 238-349, limits assumed, labelled for MST (label not named))
T1 construct: domain: PAS-B; 25 nM labelled protein in the assay; also called HIF-1α PAS-B protein; labelled HIF-1α PAS-B
T1 sequence (Q16665 238-349 limits assumed): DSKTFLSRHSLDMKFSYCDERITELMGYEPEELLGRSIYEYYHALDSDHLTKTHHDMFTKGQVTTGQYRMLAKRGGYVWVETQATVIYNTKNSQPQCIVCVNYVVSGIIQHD
experimental-details: MST (microscale thermophoresis), labelled HIF-1α PAS-B [part 3 of 14) B]
endpoint: Kd

Return reported Kd; argument: CLLYVY (cyclic (cyclo-) peptide, also called Y derivative at the phenylalanine position; Cys leu leu tyr val tyr) [Cyclo-CLLYVY]
> 200 µM
